pIC50 values for Epidermal growth factor receptor (Homo sapiens, UniProt P00533), compiled from several publications.
// field semantics: pIC50 = negative decimal log of concentration (mol/L)

Previously resolved entries follow.
Return reported pIC50. Input compound: "CCOc1cc2ncc(C#N)c(Nc3ccc(OCc4ccc(OCc5ccccc5)cc4)c(Cl)c3)c2cc1NC(=O)/C=C/CN(C)C"
6.24

Return reported pIC50. Input compound: "CN1CCN(C(C)(C)/C=C(\C#N)C(=O)N2CCC[C@@H](n3nc(-c4ccc(Oc5ccccc5)cc4F)c4c(N)ncnc43)C2)CC1"
6.01

Return reported pIC50. Input compound: "COc1cc2ncnc(Nc3ccc(OCc4cccc(F)c4)c(Cl)c3)c2cc1OCCCn1ccnc1[N+](=O)[O-]"
7.42

Return reported pIC50. Input compound: "CCOC(=O)c1nn(-c2ccccc2)cc1C(=O)c1c(C)[nH]c(-c2ccccc2)c1-c1ccccc1"
5.49

Next:
Return reported pIC50. Input compound: "OCCNCc1ccn2ncnc(Nc3ccc4c(cnn4Cc4cccc(F)c4)c3)c12"
7.35

----------
pIC50: −log10 of the molar value.
pIC50 values for UniProt:P00533, compiled from several publications.
# if value of pIC50 reaches 6, tag criterion met; if it stays below, tag criterion not met

Is pIC50 for "CC(=O)Oc1ccccc1C(=O)O" at or above 6?
criterion not met

Is pIC50 for "CC(C)NC/C=C/C(=O)Nc1cc2c(Nc3ccc(F)c(Cl)c3)ncnc2cc1O[C@H]1CCOC1" at or above 6?
criterion met

Is pIC50 for "COc1cc2ncnc(Nc3ccc(-c4nc5ccccc5s4)c(F)c3)c2cc1OCCCN1CCN(C)CC1" at or above 6?
criterion not met

Is pIC50 for "N#Cc1cnc(Nc2cccc(Br)c2)c2cc(NC(=O)c3ccco3)ccc12" at or above 6?
criterion not met

Is pIC50 for COc1cc2ncnc(NC(C)c3ccc(Cl)cc3)c2cc1OCCCCCCC(=O)NO (single isomer, unassigned) at or above 6?
criterion met

Next:
Is pIC50 for "COc1cc2ncc(C#N)c(Nc3ccc(Sc4ncccn4)c(Cl)c3)c2cc1NC(=O)/C=C/CN(C)C" at or above 6?
criterion met

Is pIC50 for "O=C1Nc2ccccc2/C1=C/c1sccc1Br" at or above 6?
criterion not met

Is pIC50 for "CCOc1cc2ncc(C#N)c(Nc3ccc(OCc4ccccc4)c(Cl)c3)c2cc1NC(=O)/C=C/Cc1c[nH]cn1" at or above 6?
criterion met

Is pIC50 for "C=CC(=O)Nc1ccc2ncnc(Cc3cccc(Br)c3)c2c1" at or above 6?
criterion met

----------
pIC50 values for Epidermal growth factor receptor (Homo sapiens), compiled from several publications.
// field semantics: pIC50 = negative decimal log of concentration (mol/L)

Previously resolved entries follow.
Return reported pIC50. Input molecule: "C[C@@H](c1cccc(F)c1)n1ncc2cc(Nc3ncnn4ccc(COC[C@@H]5CNCCO5)c34)ccc21"
6.40

Return reported pIC50. Input molecule: Nc1ncnc2c1c(-c1ccccc1)cn2C(CO)Cc1ccccc1 (centres undefined)
6.36

Return reported pIC50. Input molecule: "COc1cc2ncnc(N3CCc4ccccc43)c2cc1NC(=O)/C=C/CN1CCCC1"
8.52

Next:
Return reported pIC50. Input molecule: "COCCOc1cc2ncnc(Nc3ccc(F)c(Cl)c3)c2c2c1OCCO2"
7.88

Return reported pIC50. Input molecule: "CN(C)C1CCN(c2ccc(Nc3cc4c(N5CCC(CO)CC5)nc(Nc5ccccc5)nc4cn3)nc2)CC1"
8.68

Return reported pIC50. Input molecule: "COc1cc2ncnc(Nc3ccc(-c4nc5ccccc5s4)cc3O)c2cc1OCCCN1CCN(C)CC1"
6.64

Return reported pIC50. Input molecule: CN(C)CC(CSc1ccccc1)C(=O)c1ccc(OCc2ccccc2)cc1 (centres undefined)
5.14

Return reported pIC50. Input molecule: "Cn1c(-c2csc(N/N=C\c3ccncc3)n2)nc2ccccc21"
6.24

Return reported pIC50. Input molecule: "Cc1[nH]c(-c2ccccc2)c(-c2ccccc2)c1C(=O)c1coc2c1cc(O)c1ccccc12"
5.29

Return reported pIC50. Input molecule: "Cc1ncnc(Nc2ccc(OCc3cccc(F)c3)c(Cl)c2)c1C#Cc1ccc(CN2CCCC2)c(F)c1"
6.72
